Cited source: patent US7855232B2

# System: Glutathione S-Transferase
# test_details: Glutathione S-transferase (GST) activity in tissue cytosol of treated mice, CDNB substrate
# Assay type: in vivo, Female A/J mice
# protocol_conditions: colon; dose 0.04 mmol/Kg body weight, gavage in corn oil
Marks after values point to notes of the source that are not given here.

>  <molecule>
[Se]=C=NCc1ccc(CN=C=[Se])[se]1

>  <measured_on>
Glutathione S-Transferase

>  <GST act.>
0.87 ± 0.03 ^e μmol/min mg protein

$$$$
>  <molecule>
N#C[Se]Cc1ccc(C[Se]C#N)s1 [(2) TDMSC, thienyl-2,5-di-methylene selenocyanate]

>  <measured_on>
Glutathione S-Transferase

>  <GST act.>
0.40 ± 0.01 μmol/min mg protein

$$$$
>  <molecule>
N#C[Se]Cc1ccc(C[Se]C#N)[se]1

>  <measured_on>
Glutathione S-Transferase

>  <GST act.>
0.44 ± 0.04 μmol/min mg protein

$$$$
>  <molecule>
[Se]=C=NCc1ccc(CN=C=[Se])s1

>  <measured_on>
Glutathione S-Transferase

>  <GST act.>
0.74 ± 0.04 ^f μmol/min mg protein

$$$$
>  <molecule>
N#C[Se]Cc1ccc[se]1 [(3) SMSC, 2-selenophenyl methylene selenocynate]

>  <measured_on>
Glutathione S-Transferase

>  <GST act.>
0.69 ± 0.09 μmol/min mg protein

$$$$

====

# Test system: Glutathione S-Transferase
# test_details: Glutathione S-transferase (GST) activity in tissue cytosol of treated mice, CDNB substrate
# Assay type: in vivo, Female A/J mice
# protocol_conditions: forestomach; dose 0.02 mmol/Kg body weight, gavage
Form field: Ratio Test/con (GST) (one value per entry).
assay_endpoint: Ratio Test/con (GST)

>  <compound>
[Se]=C=NCc1ccc(CN=C=[Se])[se]1

>  <measured_on>
Glutathione S-Transferase

>  <assay_result>
1.10

$$$$
>  <compound>
N#C[Se]Cc1ccc(C[Se]C#N)[se]1

>  <measured_on>
Glutathione S-Transferase

>  <assay_result>
1.35

$$$$
>  <compound>
N#C[Se]Cc1ccc(C[Se]C#N)cc1 [p-XSC, 1,4-phenylenebis(methylene)selenocyanate, reference compound]

>  <measured_on>
Glutathione S-Transferase

>  <assay_result>
0.88

$$$$
>  <compound>
N#C[Se]Cc1ccc[se]1 [(3) SMSC, 2-selenophenyl methylene selenocynate]

>  <measured_on>
Glutathione S-Transferase

>  <assay_result>
0.8

$$$$
>  <compound>
N#C[Se]Cc1ccc(C[Se]C#N)s1 [(2) TDMSC, thienyl-2,5-di-methylene selenocyanate]

>  <measured_on>
Glutathione S-Transferase

>  <assay_result>
1.15

$$$$
>  <compound>
[Se]=C=NCc1ccc(CN=C=[Se])s1

>  <measured_on>
Glutathione S-Transferase

>  <assay_result>
0.93

$$$$

====

# Tested on: Glutathione S-Transferase
# test_details: Glutathione S-transferase (GST) activity in tissue cytosol of treated mice, CDNB substrate
# Format: in vivo, Female A/J mice
# protocol_conditions: small intestinal mucosa; dose 0.04 mmol/Kg body weight, gavage
Form field: Ratio Test/con (GST) (one value per entry).
assay_endpoint: Ratio Test/con (GST)

>  <molecule>
N#C[Se]Cc1ccc[se]1 [(3) SMSC, 2-selenophenyl methylene selenocynate]

>  <assay_endpoint>
Ratio Test/con (GST)

>  <assay_result>
0.91

$$$$
>  <molecule>
N#C[Se]Cc1ccc(C[Se]C#N)[se]1

>  <assay_endpoint>
Ratio Test/con (GST)

>  <assay_result>
1.06

$$$$
>  <molecule>
N#C[Se]Cc1ccc(C[Se]C#N)s1 [(2) TDMSC, thienyl-2,5-di-methylene selenocyanate]

>  <assay_endpoint>
Ratio Test/con (GST)

>  <assay_result>
1.18

$$$$
>  <molecule>
[Se]=C=NCc1ccc(CN=C=[Se])s1

>  <assay_endpoint>
Ratio Test/con (GST)

>  <assay_result>
2.41

$$$$
>  <molecule>
[Se]=C=NCc1ccc(CN=C=[Se])[se]1

>  <assay_endpoint>
Ratio Test/con (GST)

>  <assay_result>
2.82

$$$$
